Target: T1, PUF4 RNA-binding domain (Saccharomyces cerevisiae, UniProt P25339 537-888)
T1 sequence: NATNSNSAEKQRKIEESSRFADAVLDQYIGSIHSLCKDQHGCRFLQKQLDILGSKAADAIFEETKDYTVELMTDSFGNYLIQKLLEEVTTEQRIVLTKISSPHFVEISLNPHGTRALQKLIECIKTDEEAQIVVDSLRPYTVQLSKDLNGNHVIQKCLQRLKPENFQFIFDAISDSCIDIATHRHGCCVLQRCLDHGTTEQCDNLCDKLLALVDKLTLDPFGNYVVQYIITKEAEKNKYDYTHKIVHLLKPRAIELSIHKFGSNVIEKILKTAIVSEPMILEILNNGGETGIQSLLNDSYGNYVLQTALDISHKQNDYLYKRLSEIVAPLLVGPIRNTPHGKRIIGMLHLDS
Test: Mg; RNA-MaP; 20 mM Na-HEPES pH 7.4, 30 mM KOAc, 0.75 mM MgCl2, 0.1% Tween-20, 5% glycerol, 0.1 mg/mL BSA, 2 mM DTT; 25 C; 0.0125-409.6 nM protein
Conditions: tags: N-His6-TEV cleaved; C-SNAP kept, Cy3B-labelled; label: tethered on chip by stalled RNA polymerase
# reported Kd; entries follow
Note: unit nM is implicit; provide only the numeric part.

Worked cases, answers included:
binder="Ib_S4_P5E.1_K5.1_C5.1_H5.1_A5.1_[T5G]_F5.1_[T8C]_T5.1 (ssRNA) RNA: UUUGACAACUGAUCGUUCUUUCUUGUAGUACUAUUCUUUCUCGAUCAGUUGUCUUU" reported_result=13.1
binder="UCUCUUUGUAUUGCGUCUCUU (ssRNA) [Ic_S1_P4E.1_K4.1_C4.1_H4.1_A4.1_[A6T]_[T7G]_F4.1_[T8C]_[A9G]_T4.1]" reported_result=926
binder="UCUCUUUAUAUACUAUCUCUU (ssRNA) [Ib_S1_P4E.1_K4.1_C4.1_H4.1_[G2A]_A4.1_[T7C]_F4.1_T4.1]" reported_result=17.8

(Q) Reported Kd for UCUCUUUGUAAUGCUUUCUCUU (ssRNA) [Ic_S1_P5E.1_K5.1_C5.1_H5.1_A5.1_[T5A]_[A7G]_F5.1_[T8C]_[A10T]_T5.1] : what is it?
(A) 181

(Q) Recorded Kd of UCUCUUUGUACACCAUUCUCUU (ssRNA) [Ic_S1_P5E.1_K5.1_C5.1_H5.1_A5.1_[T5C]_[T6A]_[A7C]_F5.1_[T8C]_[T9A]_[A10T]_T5.1] , please.
(A) 16.1

(Q) Item UCUCUUCGUAUAUUAUUAACUCUCUU (ssRNA) [Id_ii_S1_P5E.3_K5.2_C5.2_[T-1G]_H5.2_A5.1_F5.1_T5.2_[T11A]_[A12C]] has what recorded Kd?
(A) 27.7

(Q) Which Kd reading was recorded for the binder UCUCUUUCUACAUUAUCUCUU (ssRNA) [Ib_S1_P4E.1_K4.1_C4.1_H4.1_[G2C]_A4.1_[T5C]_F4.1_T4.1] ?
(A) 1450
